tested on: HCT-116 colon; assay: NCI tumour cell line growth inhibition, 48 h
READOUT KIND: log10 of TGI (log10 of the value in µM)

COMPOUND: CC1CC[C@@]2(OC1)OC1C[C@H]3[C@@H]4CC[C@H]5CC(OC6OC(CO)C(OC7OC(CO)C(O)C(O)C7OC7OC(CO)C(O)C(O)C7O)C(O)C6O)CCC5(C)[C@H]4CCC3(C)C1[C@@H]2C (stereo not given in full)
TARGET OR SYSTEM: HCT-116 colon
READOUT KIND: log10 of TGI
DATA VALUE: 0.87
--
COMPOUND: COc1c(Br)cc(Br)c(OC)c1-c1[nH]c(Br)c(Br)c1Br
TARGET OR SYSTEM: HCT-116 colon
READOUT KIND: log10 of TGI
DATA VALUE: 1.09
--
COMPOUND: CN(C)Cc1c[nH]c2c(NCCN)c3c(c(NCCN)c12)C(=O)c1ccccc1C3=O
TARGET OR SYSTEM: HCT-116 colon
READOUT KIND: log10 of TGI
DATA VALUE: 0.72
--
COMPOUND: CN(C)c1ccc(C=C2N=C(c3ccccc3)N(c3cc(C(=O)c4ccccc4)ccc3N3C(=O)/C(=C/c4ccc(N(C)C)cc4)N=C3c3ccccc3)C2=O)cc1
TARGET OR SYSTEM: HCT-116 colon
READOUT KIND: log10 of TGI
DATA VALUE: 1.98
--
COMPOUND: O=[N+]([O-])/C(C(Cl)=C(Cl)Cl)=C(\Nc1cccc2cccnc12)SCc1ccccc1
TARGET OR SYSTEM: HCT-116 colon
READOUT KIND: log10 of TGI
DATA VALUE: 1.56
--
COMPOUND: N=S(c1ccccc1)c1ccccc1[N+](=O)[O-] (stereo not given)
TARGET OR SYSTEM: HCT-116 colon
READOUT KIND: log10 of TGI
DATA VALUE: 1.50
--
COMPOUND: Cc1ccccc1Nc1nc2c(s1)C(=O)c1ccccc1C2=O
TARGET OR SYSTEM: HCT-116 colon
READOUT KIND: log10 of TGI
DATA VALUE: 0.82
--
COMPOUND: CCCn1c(CN(Cc2nc3ccccc3n2CCC)Cc2nc3ccccc3n2CCC)nc2ccccc21
TARGET OR SYSTEM: HCT-116 colon
READOUT KIND: log10 of TGI
DATA VALUE: 1.13
--
COMPOUND: O=C/C(=C(/Cl)c1ccc(O)cc1)c1ccccc1
TARGET OR SYSTEM: HCT-116 colon
READOUT KIND: log10 of TGI
DATA VALUE: 1.57
